Numbers sourced from patent US20240270762A1.

- Test system: N. gonorrhoeae FA1090
- methodNotes: Liquid broth MIC in Fastidious broth
- testContext: Neisseria gonorrhoeae, FA1090, read-out: Minimum Inhibitory Concentration (MIC), N. gonorrhoeae FA 1090

{"columns": ["compound", "MIC"],
 "data": [
  ["CC(C)(C)C(=O)NC(C(=O)N[C@H]1Cc2cccc(C(=O)O)c2OB1O)c1ccc(P(=O)(O)O)cc1 (stereo partly drawn)", "4 to 8 µg/mL"],
  ["CN(CCN1CCN(C(=O)N[C@@H](C(=O)N[C@H]2Cc3ccc(F)c(C(=O)O)c3OB2O)c2cc(F)c(O)c(O)c2Cl)C(=O)C1=O)Cc1cccc(C(N)=O)c1", "1 to 2 µg/mL"],
  ["CS(=O)(=O)N1CCN(C(=O)N[C@H](C(=O)N[C@H]2Cc3cccc(C(=O)O)c3OB2O)c2ccc(P(=O)(O)O)cc2)C1=O (single isomer, unassigned)", "< 1 µg/mL"],
  ["O=C(NCCN1CCN(C(=O)NC(C(=O)N[C@H]2Cc3ccc(F)c(C(=O)O)c3OB2O)c2cc(F)c(O)c(O)c2Cl)C(=O)C1=O)c1nccs1 (stereo partly drawn)", "1 to 2 µg/mL"],
  ["O=C(NCCN1CCN(C(=O)NC(C(=O)N[C@H]2Cc3ccc(F)c(C(=O)O)c3OB2O)c2cc(F)c(O)c(O)c2Cl)C1=O)c1ccccc1 (stereo partly drawn)", "1 to 2 µg/mL"],
  ["O=C(CN1CCN(C(=O)NC(C(=O)N[C@H]2Cc3ccc(F)c(C(=O)O)c3OB2O)c2cc(F)c(O)c(O)c2Cl)C(=O)C1=O)Nc1ccc(O)cc1 (stereo partly drawn)", "1 to 2 µg/mL"]
]}
